Hello, the source for this data is patent US11440923B2, in case you need it.

System: SUDHL5 cells
protocolDetails: Induction of cytotoxicity in SUDHL5 cells (Assay 6)
Format: cell-based
details: 5 h, CellTiter-Glo; read-out: Cytotox SUDHL5 IC50 (median)
Doc: threshold 3 µM (exclusive). Items with IC50 beneath it return yes (1); others return no (0).

Study these solved cases before continuing.
CCc1c2c(nn1C)C(CCN(C)C)OCCCCn1c(C(=O)O)c(CCCOc3cccc4cc(F)ccc34)c3ccc(Cl)c-2c31 (single isomer, unassigned) [Example 85] : yes (1)
CCc1c2c(nn1C)C(C(F)(F)F)OCCCCn1c(C(=O)O)c(CCCOc3cccc4ccccc34)c3ccc(Cl)c-2c31 (single isomer, unassigned; enantiomer 1) [Example 33] : yes (1)
CCc1c2c(nn1C)C(CCO)OCCCCn1c(C(=O)O)c(CCCOc3cccc4cc(F)ccc34)c3ccc(Cl)c-2c31 (single isomer, unassigned; enantiomer 2) [Example 46] : no (0)
CCc1c2c(nn1C)C(CCN1CCOCC1)OCCCCn1c(C(=O)O)c(CCCOc3cccc4ccccc34)c3ccc(F)c-2c31 (single isomer, unassigned; enantiomer 2) [Example 12] : no (0)

input: Dear colleague, could you confirm whether IC50 of Cc1c2c(nn1C)C(C1CC1)OCCCCn1c(C(=O)O)c(CCCOc3cccc4ccccc34)c3ccc(Cl)c-2c31 (single isomer, unassigned; enantiomer 2) [Example 36] falls below 3 µM? Thanks.
output: no (0)

---

Tested on: SUDHL5 cells
protocolDetails: Induction of cytotoxicity in SUDHL5 cells (Assay 6)
Assay type: cell-based
details: 5 h, CellTiter-Glo; read-out: Cytotox SUDHL5 IC50 (median)
Measured IC50, listed per entry for reference.
Write the value in nM as a bare number.

// solved cases for IC50 follow
CCc1c2c(nn1C)C(CCN1CC(F)(F)C1)OCCCCn1c(C(=O)O)c(CCCOc3cccc4cc(F)ccc34)c3ccc(Cl)c-2c31 (single isomer, unassigned; (+)) [Example 78] : 14
Cc1c2c(nn1C)C(CCN1CCOCC1)OCCCCn1c(C(=O)O)c(CCCOc3cccc4ccccc34)c3ccc(F)c-2c31 (single isomer, unassigned; enantiomer 2) [Example 9] : 5400

The compound listed as CCc1c2c(nn1C)C(CCOC)OCCCCn1c(C(=O)O)c(CCCOc3cccc4cc(F)ccc34)c3ccc(Cl)c-2c31 (single isomer, unassigned; enantiomer 1) [Example 42] shows IC50 equal to 55

Measured IC50 of CCC1OCCCCn2c(C(=O)O)c(CCCOc3cccc4ccccc34)c3ccc(Cl)c(c32)-c2c1nn(C)c2C (single isomer, unassigned; enantiomer 1) [Example 29] : 1100

Form: compound = CCc1c2c(nn1C)[C@@H](CCN1CCOCC1)OCCCCn1c(C(=O)O)c(CCCOc3cccc4cc(F)ccc34)c3ccc(Cl)c-2c31 [Example 47] ; IC50 = 8.2

---

System: NCI-H23 cells
protocolDetails: Antiproliferation assay NCI-H23 (Assay 7)
Type: cell-based
details: 72 h, CellTiter-Glo; read-out: Antiproli NCI-H23 IC50
attributeMeasured: IC50 (µM)
The figure you give is taken to be in µM; do not add the unit.

Entry Cc1c2c(nn1C)C(CCN1CCOCC1)OCCCCn1c(C(=O)O)c(CCCOc3cccc4ccccc34)c3cccc-2c31 (stereo not shown) ; IC50 = 6.98

---

Tested on: SNU-389 cells
protocolDetails: Antiproliferation assay SNU-389 (Assay 7)
Type: cell-based
details: 72 h, CellTiter-Glo; read-out: Antiproli SNU-389 IC50
Rule: IC50 below 200 nM gives criterion met. Equal to or above 200 nM gives criterion not met.

Cc1c2c(nn1C)C(CCN1CCOCC1)OCCCCn1c(C(=O)O)c(CCCOc3cccc4ccccc34)c3ccc(Cl)c-2c31 (single isomer, unassigned; enantiomer 1) : criterion met
Cc1c2c(nn1C)C(CCN1CCOCC1)OCCCCn1c(C(=O)O)c(CCCOc3cccc4cc(F)ccc34)c3ccc(Cl)c-2c31 (racemic) : criterion met
CCc1c2c(nn1C)C(CCC(C)(C)O)OCCCCn1c(C(=O)O)c(CCCOc3cccc4cc(F)ccc34)c3ccc(Cl)c-2c31 (single isomer, unassigned; enantiomer 1) : criterion met

input: Hi there! Is IC50 for Cc1c2c(nn1C)C(CCN1CCOCC1)OCCCCn1c(C(=O)O)c(CCCOc3cccc4ccccc34)c3cccc-2c31 (stereo not drawn) below 200 nM, do you know?
output: criterion not met

input: Is it true that IC50 reported for CCc1c2c(nn1C)C(CCCN1CCOCC1)OCCCCn1c(C(=O)O)c(CCCOc3cccc4cc(F)ccc34)c3ccc(Cl)c-2c31 (single isomer, unassigned; enantiomer 1) is less than 200 nM?
output: criterion not met

input: Find out if reported IC50 for CCc1c2c(nn1C)C(CCN1CCOCC1)N(C)CCCCn1c(C(=O)O)c(CCCOc3cccc4cc(F)ccc34)c3ccc(Cl)c-2c31 (single isomer, unassigned) is less than 200 nM
output: criterion not met

---

Test system: SNU-16 cells
protocolDetails: Antiproliferation assay SNU-16 (Assay 7)
Format: cell-based
details: Homo sapiens, SNU-16, 72 h, read-out: Antiproli SNU-16 IC50 median
attributeMeasured: IC50 (nM)
Give just the numeric value; nM need not be written.

Cc1c2c(nn1C)C(CCN1CCOCC1)OCCCCn1c(C(=O)O)c(CCCOc3cccc4cc(F)ccc34)c3ccc(F)c-2c31 (single isomer, unassigned; enantiomer 1) : 397
CCc1c2c(nn1C)C(CCN1CCN(C)CC1)OCCCCn1c(C(=O)O)c(CCCOc3cccc4cc(F)ccc34)c3ccc(Cl)c-2c31 (single isomer, unassigned; stereoisomer 1) : 1490

Lab note: measured IC50 of CCc1c2c(nn1C)C(CCC1CCOCC1)OCCCCn1c(C(=O)O)c(CCCOc3cccc4cc(F)ccc34)c3ccc(Cl)c-2c31 (single isomer, unassigned; enantiomer 1) was 276

---

tgt: MCL1 protein / biotinylated BIM BH3 peptide in RKO cells (Homo sapiens (Human))
Sequence (Q07820 whole entry): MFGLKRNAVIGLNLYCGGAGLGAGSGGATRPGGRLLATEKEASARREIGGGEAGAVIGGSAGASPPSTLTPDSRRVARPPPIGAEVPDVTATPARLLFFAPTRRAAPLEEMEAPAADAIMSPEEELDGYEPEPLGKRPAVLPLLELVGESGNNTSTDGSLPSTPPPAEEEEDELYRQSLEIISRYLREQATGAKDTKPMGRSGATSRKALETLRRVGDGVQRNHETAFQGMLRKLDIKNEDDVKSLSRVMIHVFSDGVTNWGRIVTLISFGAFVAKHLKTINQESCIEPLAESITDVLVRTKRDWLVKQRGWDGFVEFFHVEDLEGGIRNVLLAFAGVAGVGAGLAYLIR
protocolDetails: PIxEL: protein-protein interaction in permeabilized cells by ELISA (Assay 5)
Format: cell-based
details: PIxEL IC50 (median)
Would you mind sorting the entries by IC50 according to these classes? bucket A (below 100 nM), bucket B (100 nM to below 1000 nM), bucket C (1000 nM or more)

Cc1c2c(nn1C)C(CCN1CCOCC1)OCCCCn1c(C(=O)O)c(CCCOc3cccc4ccccc34)c3ccc(Cl)c-2c31 (single isomer, unassigned; enantiomer 1) [Example 14] : bucket A
Cc1c2c(nn1C)C(C1CC1)OCCCCn1c(C(=O)O)c(CCCOc3cccc4ccccc34)c3ccc(Cl)c-2c31 (single isomer, unassigned; enantiomer 1) [Example 35] : bucket C
CCc1c2c(nn1C)C(c1ccccc1)OCCCCn1c(C(=O)O)c(CCCOc3cccc4cc(F)ccc34)c3ccc(Cl)c-2c31 (racemic) : bucket B
Cc1c2c(nn1C)C(C1CC1)OCCCCn1c(C(=O)O)c(CCCOc3cccc4ccccc34)c3ccc(Cl)c-2c31 (racemic) [Example 28] : bucket C
CCc1c2c(nn1C)C(C(F)(F)F)OCCCCn1c(C(=O)O)c(CCCOc3cccc4ccccc34)c3ccc(Cl)c-2c31 (single isomer, unassigned; enantiomer 1) [Example 33] : bucket C
CCc1c2c(nn1C)C1CCCN1CCCCn1c(C(=O)O)c(CCCOc3cccc4cc(F)ccc34)c3ccc(Cl)c-2c31 (single isomer, unassigned; (+)) : bucket A
CCc1c2c(nn1C)C(CCC1CCOCC1)OCCCCn1c(C(=O)O)c(CCCOc3cccc4cc(F)ccc34)c3ccc(Cl)c-2c31 (single isomer, unassigned; enantiomer 1) : bucket A
CCc1c2c(nn1C)C(CCO)OCCCCn1c(C(=O)O)c(CCCOc3cccc4cc(F)ccc34)c3ccc(Cl)c-2c31 (single isomer, unassigned; enantiomer 1) : bucket B
CCC1OCCCCn2c(C(=O)O)c(CCCOc3cccc4ccccc34)c3ccc(Cl)c(c32)-c2c1nn(C)c2C (single isomer, unassigned; enantiomer 1) : bucket C

input: Which band does Cc1c2c(nn1C)C(CCO)OCCCCn1c(C(=O)O)c(CCCOc3cccc4ccccc34)c3ccc(Cl)c-2c31 (racemic) [Example 26] fall in?
output: bucket C

---

// reported pEC50 for each item listed
Test system: SUDHL5 cells
protocolDetails: Induction of caspase-3/7 activity in SUDHL5 cells (Assay 4)
Format: cell-based
details: Homo sapiens, SU-DHL-5, 3 h, caspase-3/7 induction, 3 h; read-out: Caspase SUDHL5 EC50 (median)
Worth noting: pEC50 values are minus log10 of concentrations stated in mol/L.

Worked cases, answers included:
CCc1c2c(nn1C)C(CCN1CCN(C)CC1)OCCCCn1c(C(=O)O)c(CCCOc3cccc4cc(F)ccc34)c3ccc(Cl)c-2c31 (single isomer, unassigned; stereoisomer 4) : 5.28
Cc1c2c(nn1C)C(CCN1CCOCC1)OCCCCn1c(C(=O)O)c(CCCOc3cccc4cc(F)ccc34)c3ccc(Cl)c-2c31 (racemic) [Example 16] : 8.17
COCCC1OCCCCn2c(C(=O)O)c(CCCOc3cccc4ccccc34)c3ccc(Cl)c(c32)-c2c1nn(C)c2C (racemic) : 6.60
CCc1c2c(nn1C)C(CCN1CC(F)C1)OCCCCn1c(C(=O)O)c(CCCOc3cccc4cc(F)ccc34)c3ccc(Cl)c-2c31 (racemic) : 7.18
CCc1c2c(nn1C)C(CCC1CCOCC1)OCCCCn1c(C(=O)O)c(CCCOc3cccc4cc(F)ccc34)c3ccc(Cl)c-2c31 (racemic) : 7.30

Memo: CCc1c2c(nn1C)C(C(F)(F)F)OCCCCn1c(C(=O)O)c(CCCOc3cccc4ccccc34)c3ccc(Cl)c-2c31 (racemic) , reported pEC50: 5.49
